As shown below, each of these sequences has a reported protein stability index value.
Experiment: protein stability index of a GFP-peptide fusion (GPS, HEK-293T) (PSI 1-6); higher = more stable;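 note: 24-mer peptide tiles fused after GFP, lentivirally expressed, FACS-sorted into six equal bins by GFP/DsRed ratio, decoded by Illumina sequencing, PSI is the read-weighted mean bin number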
Details: treatment: MLN4924 1 uM, 8 h; c terminus: a fixed tail appended
recorded.endpoint: protein stability index

INSERT INTO measurements (residue_sequence, recorded_endpoint, experimental_result) VALUES
  ('PWLCGESFTLADVSLAVTLHRLKF [GDAP1]', 'protein stability index', 2.35),
  ('DYSRPLHISTFINELDSGFRLLNL [TSN]', 'protein stability index', 2.21),
  ('FHLSLFQGWMNLLNMAKKSVDIVS [PLD5]', 'protein stability index', 1.73),
  ('LGQHMVEQLLARGYAVNVFDIQQG [NSDHL]', 'protein stability index', 2.22),
  ('LRRIRAESGTKGLFAGFLPRIIKA [SLC25A39]', 'protein stability index', 2.15),
  ('ITNVDLREYLSEEVQAVHKNTTYD [USP39]', 'protein stability index', 4.17),
  ('PDVTRVGLLQYGSTVKNEFSLKTF [MATN2]', 'protein stability index', 2.85),
  ('MNVMLKSSPVDLVTATDQKVEKML [IMPA1]', 'protein stability index', 3.96),
  ('VGYTRGLHVWQITWAMRQRGTHAV [SPSB1]', 'protein stability index', 2.55),
  ('AFARQAAQEPSAVPRAGPLTVNTE [FOXJ1]', 'protein stability index', 4.49),
  ('FGFFFGRTPLIKLSPKKTWEGFIG [CDS1]', 'protein stability index', 2.18),
  ('PVSCCLGLLLESLVPFIVNDNITN [DYNC2LI1]', 'protein stability index', 2.79),
  ('LECEINTYRSLLESEDCKLPCNPC [KRT34]', 'protein stability index', 3.94);
